assayed_target: T1, human iRhom2 (inactive rhomboid protein 2, isoform 1), endogenously expressed on human cells (human, UniProt Q6PJF5 1-856)
T1 sequence: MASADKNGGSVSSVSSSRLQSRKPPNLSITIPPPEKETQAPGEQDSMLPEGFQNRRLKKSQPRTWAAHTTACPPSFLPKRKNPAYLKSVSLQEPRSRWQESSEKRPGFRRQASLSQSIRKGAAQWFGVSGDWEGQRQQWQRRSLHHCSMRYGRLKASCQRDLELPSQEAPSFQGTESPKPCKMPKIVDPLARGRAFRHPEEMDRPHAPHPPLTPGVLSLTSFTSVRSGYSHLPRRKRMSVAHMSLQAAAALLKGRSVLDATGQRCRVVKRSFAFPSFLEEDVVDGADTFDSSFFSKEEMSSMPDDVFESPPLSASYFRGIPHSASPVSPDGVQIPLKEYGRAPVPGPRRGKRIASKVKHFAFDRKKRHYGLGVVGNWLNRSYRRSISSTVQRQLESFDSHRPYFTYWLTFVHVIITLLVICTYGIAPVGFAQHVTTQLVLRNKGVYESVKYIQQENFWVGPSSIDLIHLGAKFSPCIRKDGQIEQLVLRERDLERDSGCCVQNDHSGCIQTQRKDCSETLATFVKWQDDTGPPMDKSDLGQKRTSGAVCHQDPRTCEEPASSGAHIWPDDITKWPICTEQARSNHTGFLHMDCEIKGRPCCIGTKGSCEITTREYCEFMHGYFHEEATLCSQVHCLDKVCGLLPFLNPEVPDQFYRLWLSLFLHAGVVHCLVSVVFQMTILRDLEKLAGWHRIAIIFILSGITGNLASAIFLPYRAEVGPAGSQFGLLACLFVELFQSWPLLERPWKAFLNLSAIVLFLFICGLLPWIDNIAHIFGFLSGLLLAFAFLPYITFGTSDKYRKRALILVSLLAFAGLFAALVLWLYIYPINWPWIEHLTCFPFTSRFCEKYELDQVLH
test_summary: cell-based or functional assay
# cutoff 90 % inhibition applies to inhibition of PMA-induced release of TNFα from U-937 cells, 3 µg/ml; >= gives True, < gives False

binder	answer_label
antibody 22 (antibody, V domains shown, Mouse IgG, kappa light chain; also called clone #22; m22) VH: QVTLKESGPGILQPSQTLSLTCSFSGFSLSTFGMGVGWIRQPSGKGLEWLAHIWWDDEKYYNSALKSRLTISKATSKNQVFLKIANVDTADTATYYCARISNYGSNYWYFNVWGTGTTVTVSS VL: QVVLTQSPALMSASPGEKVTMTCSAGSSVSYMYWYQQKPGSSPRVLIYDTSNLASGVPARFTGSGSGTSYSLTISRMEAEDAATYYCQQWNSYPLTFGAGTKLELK	True
chimeric version of antibody 42 (antibody, V domains shown) VH: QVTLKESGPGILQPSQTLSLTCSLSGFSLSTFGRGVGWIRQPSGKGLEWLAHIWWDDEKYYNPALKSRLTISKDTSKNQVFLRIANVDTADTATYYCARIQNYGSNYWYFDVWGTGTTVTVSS VL: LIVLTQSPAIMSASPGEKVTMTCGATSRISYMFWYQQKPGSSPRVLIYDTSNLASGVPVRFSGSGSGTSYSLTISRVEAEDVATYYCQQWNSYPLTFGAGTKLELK	True
chimeric version of antibody 22 (antibody, V domains shown) VH: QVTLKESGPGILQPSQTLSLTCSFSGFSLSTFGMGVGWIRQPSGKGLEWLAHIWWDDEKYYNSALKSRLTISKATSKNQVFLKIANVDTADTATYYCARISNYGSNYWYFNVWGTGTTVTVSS VL: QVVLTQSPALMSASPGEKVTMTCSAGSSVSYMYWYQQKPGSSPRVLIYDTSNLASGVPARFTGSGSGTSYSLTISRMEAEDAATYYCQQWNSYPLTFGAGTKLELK	True
antibody 44 (antibody, V domains shown, Mouse IgG, kappa light chain; also called clone #44; m44) VH: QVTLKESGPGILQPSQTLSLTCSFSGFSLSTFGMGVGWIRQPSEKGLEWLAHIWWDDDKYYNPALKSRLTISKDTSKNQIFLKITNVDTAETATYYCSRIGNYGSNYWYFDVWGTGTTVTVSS VL: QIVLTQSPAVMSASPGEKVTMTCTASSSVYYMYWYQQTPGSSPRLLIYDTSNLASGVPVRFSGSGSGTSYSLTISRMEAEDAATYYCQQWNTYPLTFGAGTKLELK	False
chimeric version of antibody 16 (antibody, V domains shown, Chimeric version made in CHO cells, detected with anti-human IgG; the variable domains are those of clone #16; also called ch16) VH: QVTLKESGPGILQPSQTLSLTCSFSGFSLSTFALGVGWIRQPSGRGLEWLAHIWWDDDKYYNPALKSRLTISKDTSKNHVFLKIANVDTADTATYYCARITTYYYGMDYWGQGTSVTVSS VL: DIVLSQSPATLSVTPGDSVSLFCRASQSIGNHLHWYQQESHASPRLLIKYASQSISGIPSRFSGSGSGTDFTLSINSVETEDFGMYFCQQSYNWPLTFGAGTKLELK	True
antibody 42 (antibody, V domains shown, Mouse IgG, kappa light chain; also called clone #42; m42) VH: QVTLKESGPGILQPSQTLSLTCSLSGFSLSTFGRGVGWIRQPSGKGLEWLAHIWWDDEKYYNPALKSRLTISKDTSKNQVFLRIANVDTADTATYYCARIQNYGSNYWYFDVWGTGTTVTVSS VL: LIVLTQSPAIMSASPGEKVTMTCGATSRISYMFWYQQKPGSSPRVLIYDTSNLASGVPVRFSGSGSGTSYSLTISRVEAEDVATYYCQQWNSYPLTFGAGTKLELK	True
antibody 34 (antibody, V domains shown, Mouse IgG, kappa light chain; also called clone #34; m34) VH: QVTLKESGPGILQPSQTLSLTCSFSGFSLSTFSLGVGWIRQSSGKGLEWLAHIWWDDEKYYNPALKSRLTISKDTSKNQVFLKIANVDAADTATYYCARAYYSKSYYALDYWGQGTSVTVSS VL: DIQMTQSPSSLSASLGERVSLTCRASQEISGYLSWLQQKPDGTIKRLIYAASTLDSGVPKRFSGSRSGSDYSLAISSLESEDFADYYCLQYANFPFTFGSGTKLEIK	False
